Values compiled from the supplement of paper PMC7877785.

# method notes: self-splicing fitness, log relative to wild type (ln ratio); higher = more splicing; Tetrahymena group I intron in knt gene, E. coli kanamycin selection, DiMSum; sequences stand for … in CUCUCU…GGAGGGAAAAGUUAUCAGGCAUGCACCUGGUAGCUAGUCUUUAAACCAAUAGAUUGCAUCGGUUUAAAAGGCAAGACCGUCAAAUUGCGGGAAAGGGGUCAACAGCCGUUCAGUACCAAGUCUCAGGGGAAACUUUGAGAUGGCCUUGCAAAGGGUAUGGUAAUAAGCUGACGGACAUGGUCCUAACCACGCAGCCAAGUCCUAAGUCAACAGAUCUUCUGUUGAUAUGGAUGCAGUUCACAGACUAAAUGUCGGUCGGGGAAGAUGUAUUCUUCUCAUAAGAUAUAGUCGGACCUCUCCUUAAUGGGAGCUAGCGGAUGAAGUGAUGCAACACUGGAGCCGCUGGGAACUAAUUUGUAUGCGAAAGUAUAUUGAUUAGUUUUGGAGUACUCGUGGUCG;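 note: selection with 25 µg/mL kanamycin versus none on LB agar overnight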
# recorded conditions: 37 °C
self-splicing fitness (ln) of -0.9 or higher: Satisfied. Under -0.9: Not satisfied.

# query sequence, category
measured = [
    ("GCACAGCAAUAUUACGUUUA", "Satisfied"),
    ("GAAUAGCAAUAUUACGGAUC", "Satisfied"),
    ("UCUCAGCAAUAUUACGAAUG", "Not satisfied"),
    ("AGCUAGCAAUAUUACGAGUG", "Satisfied"),
    ("UGCGAGCAAUAUUACGCUGU", "Not satisfied"),
    ("CCCGAGCAAUAUUACGCGCA", "Not satisfied"),
    ("UUAAAGCAAUAUUACGAAUU", "Not satisfied"),
    ("CUGAAGCAAUAUUACGUUGG", "Not satisfied"),
    ("GAACAGCAAUAUUACGGGCA", "Satisfied"),
    ("GUCCAGCAAUAUUACGACGG", "Not satisfied"),
    ("UUCUAGCAAUAUUACGUAAG", "Not satisfied"),
    ("UUAUAGCAAUAUUACGUUGA", "Not satisfied"),
    ("CACCAGCAAUAUUACGAGAA", "Not satisfied"),
    ("GUAUAGCAAUAUUACGACGC", "Satisfied"),
    ("CCCUAGCAAUAUUACGACGG", "Not satisfied"),
    ("CUGUAGCAAUAUUACGUAUU", "Not satisfied"),
    ("GUACAGCAAUAUUACGACGG", "Not satisfied"),
    ("AGUUAGCAAUAUUACGAGGG", "Not satisfied"),
    ("GUUAAGCAAUAUUACGGGUC", "Not satisfied"),
    ("CUUGAGCAAUAUUACGGCGU", "Not satisfied"),
    ("ACGUAGCAAUAUUACGUCAU", "Not satisfied"),
    ("UGAUAGCAAUAUUACGAGUC", "Not satisfied"),
    ("AUGCAGCAAUAUUACGGACU", "Satisfied"),
    ("ACAGAGCAAUAUUACGCCAG", "Not satisfied"),
    ("CCGCAGCAAUAUUACGCUCG", "Not satisfied"),
    ("GACUAGCAAUAUUACGGGAA", "Satisfied"),
    ("AGACAGCAAUAUUACGAGCU", "Not satisfied"),
    ("GUCAAGCAAUAUUACGAGUU", "Satisfied"),
    ("AACCAGCAAUAUUACGCAAG", "Not satisfied"),
    ("AGUAAGCAAUAUUACGUGCG", "Satisfied"),
    ("AUGUAGCAAUAUUACGCGUA", "Satisfied"),
    ("GUGCAGCAAUAUUACGUAUC", "Not satisfied"),
    ("AAUCAGCAAUAUUACGAUCC", "Satisfied"),
    ("UCGCAGCAAUAUUACGCCGU", "Not satisfied"),
    ("CCAAAGCAAUAUUACGGAGG", "Not satisfied"),
    ("CUGAAGCAAUAUUACGAGGG", "Not satisfied"),
    ("AACGAGCAAUAUUACGCUCA", "Satisfied"),
    ("UUCUAGCAAUAUUACGGUCA", "Satisfied"),
    ("AUCAAGCAAUAUUACGGCUU", "Not satisfied"),
    ("GGGGAGCAAUAUUACGCAUA", "Not satisfied"),
    ("GGUUAGCAAUAUUACGUCGU", "Satisfied"),
    ("ACAAAGCAAUAUUACGUUAC", "Not satisfied"),
    ("ACGGAGCAAUAUUACGACGU", "Not satisfied"),
    ("AAGUAGCAAUAUUACGCACC", "Satisfied"),
    ("GUCCAGCAAUAUUACGUCGA", "Satisfied"),
    ("AUCAAGCAAUAUUACGCCUU", "Satisfied"),
    ("AAAAAGCAAUAUUACGUGCG", "Satisfied"),
    ("AUCAAGCAAUAUUACGCUCU", "Satisfied"),
    ("AUUCAGCAAUAUUACGGUUC", "Satisfied"),
    ("GAUGAGCAAUAUUACGGUCC", "Not satisfied"),
    ("AUCUAGCAAUAUUACGUUCG", "Satisfied"),
    ("UACAAGCAAUAUUACGGGCC", "Not satisfied"),
    ("GCAGAGCAAUAUUACGGUCU", "Not satisfied"),
    ("AGCGAGCAAUAUUACGAUAC", "Not satisfied"),
    ("CCUCAGCAAUAUUACGGAUU", "Not satisfied"),
    ("ACGCAGCAAUAUUACGGGCA", "Satisfied"),
    ("UUUGAGCAAUAUUACGUCCA", "Satisfied"),
    ("CUAAAGCAAUAUUACGCUCA", "Not satisfied"),
    ("CUAGAGCAAUAUUACGACAA", "Not satisfied"),
    ("ACCAAGCAAUAUUACGGAAA", "Not satisfied"),
    ("UGGAAGCAAUAUUACGAACU", "Satisfied"),
    ("UACCAGCAAUAUUACGUUGC", "Not satisfied"),
    ("UUUAAGCAAUAUUACGCGCG", "Satisfied"),
]

* * *

# method notes: self-splicing fitness, log relative to wild type (ln ratio); higher = more splicing; Tetrahymena group I intron in knt gene, E. coli kanamycin selection, DiMSum; sequences stand for … in CUCUCU…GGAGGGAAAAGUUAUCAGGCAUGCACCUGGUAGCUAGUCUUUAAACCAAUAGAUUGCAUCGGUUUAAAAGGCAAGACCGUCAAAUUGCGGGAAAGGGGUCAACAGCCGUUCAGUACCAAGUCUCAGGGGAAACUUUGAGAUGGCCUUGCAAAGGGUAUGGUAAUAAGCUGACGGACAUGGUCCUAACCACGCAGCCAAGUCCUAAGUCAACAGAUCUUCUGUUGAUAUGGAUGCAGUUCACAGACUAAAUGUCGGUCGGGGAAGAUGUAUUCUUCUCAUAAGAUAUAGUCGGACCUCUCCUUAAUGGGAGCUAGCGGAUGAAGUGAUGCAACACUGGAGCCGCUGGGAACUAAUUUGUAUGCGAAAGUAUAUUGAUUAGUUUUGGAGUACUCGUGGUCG
# recorded conditions: 37 °C
self-splicing fitness (ln) of -2 or higher: 1 (yes). Under -2: 0 (no).

# query sequence, category
records = [
    ("AAGGAGCAAUAUUACGUGUA", "0 (no)"),
    ("UGAGAGCAAUAUUACGUGCA", "1 (yes)"),
    ("UAGCAGCAAUAUUACGUUGC", "1 (yes)"),
    ("UCACAGCAAUAUUACGAACC", "1 (yes)"),
    ("AUACAGCAAUAUUACGUAAG", "1 (yes)"),
    ("CGUGAGCAAUAUUACGAACA", "1 (yes)"),
    ("CUGGAGCAAUAUUACGCCCA", "0 (no)"),
    ("ACUAAGCAAUAUUACGAGCU", "1 (yes)"),
    ("UUCCAGCAAUAUUACGAACG", "1 (yes)"),
    ("UGUAAGCAAUAUUACGAAAC", "0 (no)"),
    ("ACGAAGCAAUAUUACGCGCG", "1 (yes)"),
    ("ACCUAGCAAUAUUACGUCCU", "1 (yes)"),
    ("AUAAAGCAAUAUUACGCUCC", "1 (yes)"),
    ("CUACAGCAAUAUUACGAUUC", "1 (yes)"),
    ("CCUUAGCAAUAUUACGCCUC", "0 (no)"),
    ("CGAUAGCAAUAUUACGGGGC", "0 (no)"),
    ("GGCAAGCAAUAUUACGACAC", "1 (yes)"),
    ("UUCCAGCAAUAUUACGUCUA", "1 (yes)"),
    ("CGCCAGCAAUAUUACGCAAG", "1 (yes)"),
    ("CUUAAGCAAUAUUACGUCAU", "0 (no)"),
    ("CAAAAGCAAUAUUACGCCGC", "1 (yes)"),
    ("ACUCAGCAAUAUUACGCAUG", "0 (no)"),
    ("CGUGAGCAAUAUUACGUAAG", "1 (yes)"),
    ("UGACAGCAAUAUUACGGACC", "1 (yes)"),
    ("GCACAGCAAUAUUACGUAUC", "1 (yes)"),
    ("CUUUAGCAAUAUUACGAGGU", "0 (no)"),
    ("UACCAGCAAUAUUACGGCAU", "1 (yes)"),
    ("AAACAGCAAUAUUACGGCCA", "1 (yes)"),
    ("CUUGAGCAAUAUUACGGCCG", "1 (yes)"),
    ("CCCGAGCAAUAUUACGUCCC", "0 (no)"),
    ("AGCUAGCAAUAUUACGGUAA", "1 (yes)"),
]
